The entries below are paired with their reported Activity.
biological target: Vascular endothelial growth factor receptor 2 (Homo sapiens); assay: Inhibition of recombinant human KDR (790 to end residues) assessed as residual activity at 1 uM using myelin basic protein as substrate incubated for 40 mins by [gamma-33P]-ATP scintillation counting based radiometry assay relative to control
Reported metric: Activity (%)

>>> print(df.to_string())
                                smiles_repr                             target_system  reported_metric  display_unit  numeric_result
0  CN(C)c1ccc(Nc2ncnc3sc4c(c23)CCN(C(=O)c2ccncc2)C4)cc1NC(=O)c1ccco1  Vascular endothelial growth factor receptor 2 (Homo sapiens)         Activity             %              92
1  CN(C)c1ccc(Nc2ncnc3sc4c(c23)CCNC4)cc1NC(=O)c1ccco1  Vascular endothelial growth factor receptor 2 (Homo sapiens)         Activity             %              92
2  CN(C)c1ccc(Nc2ncnc3sc4c(c23)CCNC4)cc1NC(=O)c1cccnc1  Vascular endothelial growth factor receptor 2 (Homo sapiens)         Activity             %              90
3  CN1CCc2c(sc3ncnc(Nc4ccc(N(C)C)c(NC(=O)c5ccco5)c4)c23)C1  Vascular endothelial growth factor receptor 2 (Homo sapiens)         Activity             %              89
4  CCC(=O)Nc1cc(Nc2ncnc3sc4c(c23)CCNC4)ccc1N(C)C  Vascular endothelial growth factor receptor 2 (Homo sapiens)         Activity             %              92
5  CN1CCc2c(sc3ncnc(Nc4ccc(N(C)C)c(NC(=O)c5ccccn5)c4)c23)C1  Vascular endothelial growth factor receptor 2 (Homo sapiens)         Activity             %              89
6  CN1CCc2c(sc3ncnc(Nc4ccc(N(C)C)c(NC(=O)c5cccs5)c4)c23)C1  Vascular endothelial growth factor receptor 2 (Homo sapiens)         Activity             %              89
7  CN(C)c1ccc(Nc2ncnc3sc4c(c23)CCN(C(=O)c2cnccn2)C4)cc1NC(=O)c1ccco1  Vascular endothelial growth factor receptor 2 (Homo sapiens)         Activity             %              90

----------
molecular target: Receptor tyrosine-protein kinase erbB-2 (Homo sapiens) (UniProt P04626); assay: Inhibition of recombinant human HER2 (676 to end residues) assessed as residual activity at 1 uM using poly(Glu, Tyr) 4:1 as substrate incubated for 40 mins by [gamma-33P]-ATP scintillation counting based radiometry assay relative to control
Sequence (P04626 whole entry): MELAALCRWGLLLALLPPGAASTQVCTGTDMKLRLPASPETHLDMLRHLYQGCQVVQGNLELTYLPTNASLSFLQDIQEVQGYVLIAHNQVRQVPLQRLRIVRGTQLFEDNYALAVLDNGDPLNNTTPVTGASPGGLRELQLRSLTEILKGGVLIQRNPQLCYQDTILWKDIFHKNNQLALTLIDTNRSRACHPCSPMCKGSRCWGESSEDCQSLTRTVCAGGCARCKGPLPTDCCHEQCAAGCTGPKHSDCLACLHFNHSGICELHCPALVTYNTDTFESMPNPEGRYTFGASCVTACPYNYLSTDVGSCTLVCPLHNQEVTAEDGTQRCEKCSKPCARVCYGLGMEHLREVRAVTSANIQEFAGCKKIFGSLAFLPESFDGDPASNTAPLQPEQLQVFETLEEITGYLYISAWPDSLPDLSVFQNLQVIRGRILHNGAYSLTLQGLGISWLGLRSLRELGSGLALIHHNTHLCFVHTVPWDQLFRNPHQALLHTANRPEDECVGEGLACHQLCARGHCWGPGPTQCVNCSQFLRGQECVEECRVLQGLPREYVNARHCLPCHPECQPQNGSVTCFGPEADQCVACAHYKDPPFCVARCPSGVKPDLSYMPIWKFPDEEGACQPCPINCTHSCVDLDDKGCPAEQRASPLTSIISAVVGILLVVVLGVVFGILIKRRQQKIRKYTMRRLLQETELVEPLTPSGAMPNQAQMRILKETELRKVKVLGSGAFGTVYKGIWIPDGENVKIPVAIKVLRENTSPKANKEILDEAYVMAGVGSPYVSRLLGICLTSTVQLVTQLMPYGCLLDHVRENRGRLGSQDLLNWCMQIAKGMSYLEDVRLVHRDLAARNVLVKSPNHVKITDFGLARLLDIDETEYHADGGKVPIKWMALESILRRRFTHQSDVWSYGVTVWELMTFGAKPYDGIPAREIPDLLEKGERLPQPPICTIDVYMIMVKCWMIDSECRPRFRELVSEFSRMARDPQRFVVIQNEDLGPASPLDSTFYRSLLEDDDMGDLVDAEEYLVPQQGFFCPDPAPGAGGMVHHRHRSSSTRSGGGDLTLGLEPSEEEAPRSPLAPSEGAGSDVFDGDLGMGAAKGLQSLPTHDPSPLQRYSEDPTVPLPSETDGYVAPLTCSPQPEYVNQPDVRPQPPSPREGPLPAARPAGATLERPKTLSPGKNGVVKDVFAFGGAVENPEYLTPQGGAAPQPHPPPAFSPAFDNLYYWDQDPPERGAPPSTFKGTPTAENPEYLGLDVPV
Reported metric: Activity

>>> df
                                 smiles_repr  result
 0  CN(C)c1ccc(Nc2ncnc3sc4c(c23)CCN(C(=O)c2ccccn2)C4)cc1NC(=O)c1cccs1     99%
 1  CN(C)c1ccc(Nc2ncnc3sc4c(c23)CCN(C(=O)c2cnccn2)C4)cc1NC(=O)c1ccco1     96%
 2  CN(C)c1ccc(Nc2ncnc3sc4c(c23)CCNC4)cc1NC(=O)c1cccs1    106%
 3  CN(C)c1ccc(Nc2ncnc3sc4c(c23)CCN(C(=O)c2ncccn2)C4)cc1NC(=O)c1ccco1     98%
 4  CN(C)CCCN1CCc2c(sc3ncnc(Nc4ccc(N(C)C)c(NC(=O)c5cccs5)c4)c23)C1    102%
 5  CN1CCc2c(sc3ncnc(Nc4ccc(N(C)C)c(NC(=O)c5ccco5)c4)c23)C1     95%
 6  CN1CCc2c(sc3ncnc(Nc4ccc(N(C)C)c(NC(=O)c5ccccn5)c4)c23)C1    103%
 7  CN(C)c1ccc(Nc2ncnc3sc4c(c23)CCNC4)cc1NC(=O)c1ccco1     91%
 8  CN(C)c1ccc(Nc2ncnc3sc4c(c23)CCN(C(=O)c2cccnc2)C4)cc1NC(=O)c1cccs1     93%
 9  CN1CCN(CCCN2CCc3c(sc4ncnc(Nc5ccc(N(C)C)c(NC(=O)c6cccs6)c5)c34)C2)CC1    103%
10  CCC(=O)Nc1cc(Nc2ncnc3sc4c(c23)CCN(Cc2ccccc2)C4)ccc1N(C)C     94%
11  CN1CCc2c(sc3ncnc(Nc4ccc(N(C)C)c(NC(=O)c5cccc6ccccc56)c4)c23)C1     96%
